Hi there, I'd appreciate the recorded Relative Inhibition of IL-4 induced pSTAT6 IC50 for every entry that follows.
Molecular target: T1, hIL-4Rα on cells (human, UniProt P24394 26-825)
T1 sequence: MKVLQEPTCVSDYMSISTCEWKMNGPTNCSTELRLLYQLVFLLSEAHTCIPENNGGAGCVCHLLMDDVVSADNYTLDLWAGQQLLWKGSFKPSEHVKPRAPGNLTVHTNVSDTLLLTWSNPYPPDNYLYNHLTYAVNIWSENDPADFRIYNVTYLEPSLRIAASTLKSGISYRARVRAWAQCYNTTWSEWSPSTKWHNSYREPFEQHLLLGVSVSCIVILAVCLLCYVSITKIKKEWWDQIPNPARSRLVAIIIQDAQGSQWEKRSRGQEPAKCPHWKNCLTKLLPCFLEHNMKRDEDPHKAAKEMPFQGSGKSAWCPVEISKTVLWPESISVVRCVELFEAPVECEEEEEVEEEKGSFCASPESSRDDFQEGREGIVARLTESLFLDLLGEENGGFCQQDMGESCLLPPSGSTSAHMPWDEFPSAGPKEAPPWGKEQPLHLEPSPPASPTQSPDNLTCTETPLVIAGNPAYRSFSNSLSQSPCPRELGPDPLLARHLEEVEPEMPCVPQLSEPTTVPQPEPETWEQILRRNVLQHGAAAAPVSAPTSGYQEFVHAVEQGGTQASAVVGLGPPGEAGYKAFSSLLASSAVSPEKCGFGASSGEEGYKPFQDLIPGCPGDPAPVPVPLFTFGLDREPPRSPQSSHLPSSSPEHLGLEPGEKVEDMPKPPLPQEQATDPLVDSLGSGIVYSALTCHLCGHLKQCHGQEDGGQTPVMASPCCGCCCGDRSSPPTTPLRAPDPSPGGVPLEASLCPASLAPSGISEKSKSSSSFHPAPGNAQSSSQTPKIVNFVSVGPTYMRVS
Assay: cell-based or functional assay

Exercise: I would be grateful if you could share the reported Relative Inhibition of IL-4 induced pSTAT6 IC50 for Construct 8 (mAb417) (antibody, IgG4, V domains shown, VH/VL only) VH: EVQLVESGGGLEQPGGSLRLSCAGSGFTFRDFAMTWVRQAPGKGLEWVSSISGSGDNIYYADSVKGRFTISRDNSKNTLYLQMNSLRAEDTAVYYCAKDRLSVTVRPRYYGLDVWGQGTTVTVSS VL: DIVMTQSPLSLPVTPGEPASISCRSTQSLLYSIGKNYVDWYLQKSGQSPQLLIYLGNNRATGVPDRFSGSGSGTDFTLKISRVEAEDVGFYYCMQALTTPYAFGQGTKLEIK .
Key: 1.01 relative to dupilumab

Exercise: Moving on to Construct 38 (mAb471) (antibody, IgG4, V domains shown, VH/VL only) VH: EVQLVESGGGLEQPGGSLRLSCAGSGFTFRDFAMTWVRQAPGKGLEWVSSISGSGGNIYYADSVKGRFTISRDNSKNTLYLQMNSLRAEDTAVYYCAKDRLSVTVRPRYYGLDVWGQGTTVTVSS VL: DIVMTQSPLSLPVTPGEPASISCRSSQSLLYSIGKNYVDWYLQKSGQSPQLLIYEGNKRASGVPDRFSGSGSGTDFTLKISRVEAEDVGFYYCMQSLTSPYTFGQGTKLEIK
Key: 0.723 relative to dupilumab

Exercise: Moving on to Construct 19 (mAb427) (antibody, IgG4, V domains shown, VH/VL only) VH: EVQLVESGGGLEQPGGSLRLSCAGSGFTFRTYAMTWVRQAPGKGLEWVSSISGSGDNTYYADSVKGRFTISRDNSKNTLYLQMNSLRAEDTAVYYCAKDRVSITIRPRYYGLDVWGQGTTVTVSS VL: DIVMTQSPLSLPVTPGEPASISCTSSQSLLYSIGYNYVDWYLQKSGQSPQLLIYLGNKRASGVPDRFSGSGSGTDFTLKISRVEAEDVGFYYCMQALGSPYTFGQGTKLEIK
Key: 0.844 relative to dupilumab
